For each entry below, report its IC50 value.
test system: HEL9217; experiment: in vitro cytotoxic activity, HEL9217; type: cell-based; settings: Homo sapiens, HEL 92.1.7; HEL9217, 48 hours treatment, free PBD dimer; read-out: IC50 in pM following 48 hours treatment, HEL9217
Give bare numbers, in pM.

For the molecule COc1cc2c(cc1OCCCCCOc1cc3c(cc1OC)C(=O)N1C=C(c4ccc(OCCCN(C)C)cc4)C[C@H]1C=N3)N=C[C@@H]1CC(c3ccc(N)cc3)=CN1C2=O , report IC50. 2

As a next step, examine the molecule that follows.
For the molecule COCCOCCOCCOCCOc1ccc(C2=CN3C(=O)c4cc(OC)c(OCCCCCOc5cc6c(cc5OC)C(=O)N5C=C(c7ccc(N)cc7)C[C@@H]5C=N6)cc4N=C[C@H]3C2)cc1 , report IC50. 100

###

system: 786-O; assay: in vitro cytotoxic activity, resazurin reduction assay, 786-O; type: cell-based; details: Homo sapiens, 786-0, 48 h, read-out: IC50 in pM following 48 hours treatment, 786-O
For each entry below, report its IC50 value.
One number for each entry, in pM.

For the molecule COc1cc2c(cc1OCCCCCOc1cc3c(cc1OC)C(=O)N1C=C(c4ccc(OCCCN(C)C)cc4)C[C@H]1C=N3)N=C[C@@H]1CC(c3ccc(N)cc3)=CN1C2=O , report IC50. 7

As a next step, examine the molecule that follows.
For the molecule COCCOCCOCCOCCOc1ccc(C2=CN3C(=O)c4cc(OC)c(OCCCCCOc5cc6c(cc5OC)C(=O)N5C=C(c7ccc(N)cc7)C[C@@H]5C=N6)cc4N=C[C@H]3C2)cc1 , report IC50. 100
